As shown below, each of these compounds has a reported d(H4,O1) value.
SYSTEM: MASP-2 CCP2-SP (Homo sapiens (Human), UniProt O00187)
Sequence (O00187 445-686): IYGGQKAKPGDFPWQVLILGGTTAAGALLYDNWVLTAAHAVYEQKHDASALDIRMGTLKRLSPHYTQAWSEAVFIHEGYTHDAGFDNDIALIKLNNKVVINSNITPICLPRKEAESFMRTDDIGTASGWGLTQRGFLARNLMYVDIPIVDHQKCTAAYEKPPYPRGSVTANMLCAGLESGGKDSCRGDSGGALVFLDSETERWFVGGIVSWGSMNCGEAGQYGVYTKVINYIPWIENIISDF
Sequence (O00187 364-432 partner): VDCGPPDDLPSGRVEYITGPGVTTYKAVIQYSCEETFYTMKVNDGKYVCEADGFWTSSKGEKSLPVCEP
EXPERIMENT_NOTES: MASP-2 co-crystallization, X-ray crystallography and structure analysis (H-bonds, van der Waals contacts)
Design: unit not given beside the values
DETAILS: Table A5-1 pharmacophore: distance between elements, S2/S1 region
Excerpt: This example illustrates the preparation of recombinant MASP-2 protein, based on UniProt O00187, human mannan-binding lectin serine protease 2. Expression constructs for human MASP-2 CCP2-SP and CCP2-SP-6HIS were generated for recombinant expression in E. coli cells. […]
Number, no unit, nothing else.

Guide cases for d(H4,O1), answers given:
C[C@H](NC(=O)[C@H]1Cc2c([nH]c3ccccc23)CN1)C(=O)NCc1ccc(C(=N)N)cc1.Cl.Cl [1097_2] :: 4.74
C[C@H](NC(=O)[C@@H](CCc1ccccc1)NCc1ccc(C(=O)N2CCOCC2)cc1)C(=O)NCc1ccc(C(=N)N)cc1.Cl.Cl :: 5.77

Request: Hi! What's the reported d(H4,O1) for CC(=O)Nc1ccc(CCNC(CCc2ccccc2)C(=O)NC(C)C(=O)NCc2ccc(C(=N)N)cc2)cc1.Cl.Cl (stereo not drawn) [1345_2] on MASP-2 CCP2-SP (Homo sapiens (Human), UniProt O00187)?
Result: 4.97

Request: Hi! What's the reported d(H4,O1) for `N=C(N)c1ccc(CNC(=O)[C@@H]2CCN2C(=O)[C@H]2Cc3ccccc3CN2)cc1` on MASP-2 CCP2-SP (Homo sapiens (Human), UniProt O00187)?
Result: 4.86

Request: Hi! What's the reported d(H4,O1) for `C[C@H](NC(=O)[C@H]1C[C@H](c2ccccc2)CN1)C(=O)NCc1ccc2c(N)nccc2c1` on MASP-2 CCP2-SP (Homo sapiens (Human), UniProt O00187)?
Result: 3.15

Request: Hi! What's the reported d(H4,O1) for C[C@H](NC(=O)[C@H]1C[C@@H](c2ccccc2)CCN1)C(=O)NCc1ccc(C(=N)N)cc1 (stereo in doubt) on MASP-2 CCP2-SP (Homo sapiens (Human), UniProt O00187)?
Result: 6.39

Request: Hi! What's the reported d(H4,O1) for C[C@H](NC(=O)C1C[C@@H](c2ccccc2)CCN1)C(=O)NCc1ccc(C(=N)N)cc1 (stereo in doubt) on MASP-2 CCP2-SP (Homo sapiens (Human), UniProt O00187)?
Result: 5.37

Request: Hi! What's the reported d(H4,O1) for C[C@H](NC(=O)[C@H]1C[C@H](Cc2ccccc2)CN1)C(=O)NCc1ccc(C(=N)N)cc1.Cl.Cl [1306_2] on MASP-2 CCP2-SP (Homo sapiens (Human), UniProt O00187)?
Result: 6.07

Request: Hi! What's the reported d(H4,O1) for C[C@H](NC(=O)[C@H]1Cc2c([nH]c3ccccc23)CN1)C(=O)NCc1ccc(C(=N)N)cc1.Cl.Cl [1097_1] on MASP-2 CCP2-SP (Homo sapiens (Human), UniProt O00187)?
Result: 3.88

====

SYSTEM: MASP-2 CCP2-SP (Homo sapiens (Human), UniProt O00187)
EXPERIMENT_NOTES: MASP-2 co-crystallization, X-ray crystallography and structure analysis (H-bonds, van der Waals contacts)
Set-up: unit not given beside the values
DETAILS: Table A5-1 pharmacophore: distance between elements, S2/S1 region
Text: This example illustrates the preparation of recombinant MASP-2 protein, based on UniProt O00187, human mannan-binding lectin serine protease 2. Expression constructs for human MASP-2 CCP2-SP and CCP2-SP-6HIS were generated for recombinant expression in E. coli cells. […]
As shown below, each of these molecules has a reported d(O1,O2) value.
Number, no unit, nothing else.

Guide cases for d(O1,O2), answers given:
N=C(N)c1ccc(CNC(=O)[C@@H]2CCN2C(=O)[C@H]2Cc3ccccc3CN2)cc1 :: 3.48
C[C@H](NC(=O)C1C[C@@H](c2ccccc2)CCN1)C(=O)NCc1ccc(C(=N)N)cc1 (stereo in doubt) :: 3.31
C[C@H](NC(=O)[C@H]1C[C@@H](c2ccccc2)CCN1)C(=O)NCc1cc(Cl)ccc1O.Cl [1078_11] :: 3.42
CC(NC(=O)C(CCc1ccccc1)NCc1ccc(C(=O)N2CCOCC2)cc1)C(=O)NCc1ccc(C(=N)N)cc1.Cl.Cl (stereo not shown) :: 4.62

We next turn to a different molecule, shown below.
Request: Hi! What's the reported d(O1,O2) for C[C@H](NC(=O)[C@H]1C[C@@H](c2ccccc2)CCN1)C(=O)NCc1cc(Cl)ccc1O.Cl [1078_4] on MASP-2 CCP2-SP (Homo sapiens (Human), UniProt O00187)?
Result: 3.39
